Molecular target: T1, biotinylated recombinant mouse IL-12Rβ2 (mouse, UniProt P97378 24-637, random biotinylated)
T1 construct: Recombinant protein produced in-house; also called mIL-12RB2; mouse IL-12RB2
T1 sequence: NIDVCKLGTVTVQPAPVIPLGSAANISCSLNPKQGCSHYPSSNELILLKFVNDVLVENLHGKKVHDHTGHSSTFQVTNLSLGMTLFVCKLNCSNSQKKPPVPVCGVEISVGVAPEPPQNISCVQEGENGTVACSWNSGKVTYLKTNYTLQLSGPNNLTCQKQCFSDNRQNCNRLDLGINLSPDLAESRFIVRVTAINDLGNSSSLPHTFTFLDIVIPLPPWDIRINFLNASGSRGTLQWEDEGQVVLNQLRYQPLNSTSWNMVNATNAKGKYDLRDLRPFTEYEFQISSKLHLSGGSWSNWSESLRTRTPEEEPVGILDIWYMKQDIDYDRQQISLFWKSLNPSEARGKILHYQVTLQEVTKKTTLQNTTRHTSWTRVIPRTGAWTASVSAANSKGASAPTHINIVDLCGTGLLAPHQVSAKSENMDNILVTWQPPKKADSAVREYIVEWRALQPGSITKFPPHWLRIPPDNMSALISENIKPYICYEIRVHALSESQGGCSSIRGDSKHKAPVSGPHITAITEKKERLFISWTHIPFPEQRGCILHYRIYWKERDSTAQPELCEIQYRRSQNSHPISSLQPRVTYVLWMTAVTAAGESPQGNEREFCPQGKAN
Test: ELISA, P.E., biotinylated antigen
Catalogue of ELISA mIL-12RB2/control values
observation.type: ELISA mIL-12RB2/control

[[record]]
binder = "anti-IL-12Rβ2 VHH clone 3CRH27 (clone ID 20379) (VHH, not shown: small tags and cut ends, periplasmic extract) VHH: QVQLQESGGGLVQAGGSLRLSCTASGSIVSIYNMDWYRQAPGNEREWVASITSSGDPYYDGSAKGRFTISRDNAKMTVYLQMNSLKPEDTAVYYCKVPTEKGNYWGQGTQVTVSS"
observation_type = "ELISA mIL-12RB2/control"
value = 1.44

[[record]]
binder = "anti-IL-12Rβ2 VHH clone 2CRH62 (clone ID 20368) (VHH, not shown: small tags and cut ends, periplasmic extract) VHH: QVQLQESGGGLVQPGGSLRLSCVESGRTFTVYDMGWFRQAPGKEREIVAAISADGATSIYQDSVKGRFTISRDNDAKNTVYLQMNSLKPEDTAVYYCAAGRSLIYNLYRANNTDYWGQGTQVTVSS"
observation_type = "ELISA mIL-12RB2/control"
value = 0.868

[[record]]
binder = "anti-IL-12Rβ2 VHH clone 3CAHS39 (clone ID 20393) (VHH, not shown: small tags and cut ends, periplasmic extract) VHH: QVQLQESGGGLVQAGGSLRLSCAASGRTINAYIMGWFRQAPGKEREFVAAVSGSGGSTYYADSVKGRFTISRDNAKNTVNLQMDNLRSEDTDVYYCAATYESVYLQNPGQYDYWGQGTQVTVSS"
observation_type = "ELISA mIL-12RB2/control"
value = 1.14

[[record]]
binder = "anti-IL-12Rβ2 VHH clone 3CRHS77 (clone ID 20425) (VHH, not shown: small tags and cut ends, periplasmic extract) VHH: QVQLQESGGGLVQAGGSLRLSCTASGHTFSSYTTIGWFRQAPGKEREFVAAIGWSGDITDYADAVKGRFTISRHNVENTVYLQMNSLNPEDTAVYYCARGYSEYGVLSRNRGLYAYWGQGTQVTVSS"
observation_type = "ELISA mIL-12RB2/control"
value = 1.02

